This collection of values is drawn from the supplement of paper PMC9844399.

nuclear count per well reference
test system: HeLa; assay: nuclear count per well, robust Z-score vs DMSO; higher = more cells (less toxicity); conditions: 10 µM; 6 h;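 further: Hoechst-stained nuclei counted by automated confocal imaging of four fields per well in 384-well plates, with the robust Z-score based on the per-plate DMSO median and robust SD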
Structures can show the parent of a compound that is named as a salt.
ASSAY_METRIC: nuclear count per well

COMPOUND	MEASURED_TARGET	ASSAY_METRIC	RECORDED_VALUE
Nc1nnc(-c2cccc(Cl)c2Cl)c(N)n1	HeLa	nuclear count per well	-0.337
CCc1c2c(nc3ccc(OC(=O)N4CCC(N5CCCCC5)CC4)cc13)-c1cc3c(c(=O)n1C2)COC(=O)[C@]3(O)CC	HeLa	nuclear count per well	-1.03
Clc1ccc(CSC(Cn2ccnc2)c2ccc(Cl)cc2Cl)cc1 (centres undefined) [Sulconazole Nitrate]	HeLa	nuclear count per well	0.229
C=CC[N+]1([C@H]2C[C@H]3[C@@H]4CC[C@H]5C[C@H](O)[C@@H](N6CCOCC6)C[C@]5(C)[C@H]4CC[C@]3(C)[C@H]2OC(C)=O)CCCC1 [Rocuronium Bromide]	HeLa	nuclear count per well	1.14
C1COC(NC(C2CC2)C2CC2)=N1	HeLa	nuclear count per well	1.67
CCCCC/C=C\C/C=C\CCCCCCCC(=O)NCC(=O)O	HeLa	nuclear count per well	-0.204
COC1=C(OC)C(=O)c2ccccc2C1=O	HeLa	nuclear count per well	-5.79
OCCOCCN1CCN(C(c2ccccc2)c2ccc(Cl)cc2)CC1 (centres undefined) [Hydroxyzine Dihydrochloride]	HeLa	nuclear count per well	0.351
CC(O)(P(=O)(O)O)P(=O)(O)O [Etidronate Disodium]	HeLa	nuclear count per well	-0.519
CSCC[C@H](NC(=O)c1ccc(NC[C@@H](N)CS)cc1-c1ccccc1)C(=O)O [FTI-276 trifluoroacetate salt]	HeLa	nuclear count per well	0.933
Cc1[nH]cnc1CN1CCc2c(c3ccccc3n2C)C1=O	HeLa	nuclear count per well	0.399
CC(C(C)N1CC(=O)NC(=O)C1)N1CC(=O)NC(=O)C1 (centres undefined)	HeLa	nuclear count per well	-2.95
O=C(O)c1cc(N(Cc2ccccc2O)Cc2cc(O)ccc2O)ccc1O	HeLa	nuclear count per well	0.412
C/C=C1\[C@H]2C=C(C)C[C@]1(N)c1ccc(=O)[nH]c1C2 [(-)-Huperzine A]	HeLa	nuclear count per well	-0.165
NC(N)=NCCNS(=O)(=O)c1cccc2cnccc12	HeLa	nuclear count per well	-1.09
CC(C)[C@H](NC(=O)OCc1ccccc1)C(=O)N[C@H](C=O)Cc1ccccc1	HeLa	nuclear count per well	-0.0197
CC(=O)OCOC(c1ccc2ccccc2c1)P(=O)(OCOC(C)=O)OCOC(C)=O (centres undefined)	HeLa	nuclear count per well	-4.1
CCC(C)SSc1ncc[nH]1 (centres undefined)	HeLa	nuclear count per well	-0.451
O=C(NCc1ncc(C(F)(F)F)cc1Cl)c1c(Cl)cccc1Cl [Fluopicolide]	HeLa	nuclear count per well	1.27
CCCCCCCCCCCCCCCC(=O)C1=C(O)[C@@H](CO)OC1=O	HeLa	nuclear count per well	0.247
CCCC[C@@H](C=O)NC(=O)[C@H](CC(C)C)NC(=O)[C@H](CC(C)C)NC(C)=O [Calpain Inhibitor I]	HeLa	nuclear count per well	-2.07
Cc1c(C(=O)Nc2ccc(N3C[C@@H](C)O[C@@H](C)C3)nc2)cccc1-c1ccc(OC(F)(F)F)cc1	HeLa	nuclear count per well	0.565
O=C(O[C@@H]1C[C@@H]2C[C@H]3C[C@H](C1)N2CC3=O)c1c[nH]c2ccccc12	HeLa	nuclear count per well	-0.163
CC12CC3CC(C)(C1)CC(N)(C3)C2	HeLa	nuclear count per well	-0.93
CCCCCCOC(=O)[C@]1(O)C[C@@H]2O[C@@]1(C)n1c3ccccc3c3c4c(c5c6ccccc6n2c5c31)C(=O)NC4	HeLa	nuclear count per well	0.303
O=C(O)c1ccccc1	HeLa	nuclear count per well	0.407
CCCCCC(O)CCCC(=O)O (centres undefined) [5-Hydroxydecanoate]	HeLa	nuclear count per well	0.658
Cc1cc(CS(=O)(=O)c2ccccc2)cc(OCc2ccc(CN3CCC[C@@H]3CO)cc2)c1	HeLa	nuclear count per well	-0.0923
C=C(C)[C@@H]1CC[C@]2(C(=O)O)CC[C@]3(C)[C@H](CC[C@@H]4[C@@]5(C)CC[C@H](O)C(C)(C)[C@@H]5CC[C@]43C)[C@@H]12	HeLa	nuclear count per well	-0.148
CC1=C(/C=C/C(C)=C\C=C\C(C)=C\C(=O)O)C(C)(C)CCC1 [Alitretinoin]	HeLa	nuclear count per well	-0.277
Nc1ncnc2c1ncn2C1CCCO1 (centres undefined)	HeLa	nuclear count per well	1.05
CC1(C)O[C@@H]2C[C@H]3[C@@H]4CCC5=CC(=O)C=C[C@]5(C)[C@@]4(F)[C@@H](O)C[C@]3(C)[C@]2(C(=O)CO)O1 [Triamcinolone Acetonide]	HeLa	nuclear count per well	0.175
COC(=O)N[C@H](C(=O)N[C@@H](Cc1ccccc1)[C@@H](O)CN(Cc1ccc(-c2ccccn2)cc1)NC(=O)[C@@H](NC(=O)OC)C(C)(C)C)C(C)(C)C	HeLa	nuclear count per well	0.325
CCc1c2c(nc3ccc(OC(=O)N4CCC(N5CCCCC5)CC4)cc13)-c1cc3c(c(=O)n1C2)COC(=O)[C@]3(O)CC [Irinotecan (hydrochloride)]	HeLa	nuclear count per well	-1.09
